Item-by-item account of TGI
Test system: DU-145 prostate
procedure.text: NCI tumour cell line growth inhibition, 48 h
metric: TGI

molecule=O=C(Nc1cc(C(F)(F)F)ccc1Cl)c1cccc(NC2=C(Cl)C(=O)N(Cc3ccccc3)C2=O)c1 meas_value="> 100 µM"
molecule=CCOC(=O)Cc1ccc(Nc2nc3ccccc3nc2C(=O)OCC)cc1 meas_value="> 100 µM"
molecule="CC(C)=CCC/C(C)=C/CC/C(C)=C/CC(CO)N(C)CC/C=C(\\C)CCC=C(C)C (stereo not given)" meas_value="23.7 µM"
molecule="COCOC1C=CCCCC2=CC(C)=C(CC1)O2 (stereo not given)" meas_value="> 100 µM"
molecule="O=C(O)CCSC(CC1(c2ccc(Cl)cc2)NC(=O)CCS1)c1ccccc1 (stereo not given)" meas_value="> 53.8 µM"

---

System: SF-268 CNS
procedure.text: NCI tumour cell line growth inhibition, 48 h; in the data active = GI50 below about 0.43 µM; inactive = the rest
Possible outcomes: active, inactive

molecule="COc1cc(C2CC(c3cccc(Nc4ccncc4)c3)=NN2c2ccc(Cl)cc2)cc(OC)c1OC (centres undefined)" discrete_label=inactive
molecule=C#Cc1nc(Nc2cc(C)[nH]n2)c2ccccc2n1 discrete_label=active
molecule="CSc1nc(NC2OC(COC(C)=O)C(OC(C)=O)C(OC(C)=O)C2OC(C)=O)c(N=CC=Nc2c(NC3OC(COC(C)=O)C(OC(C)=O)C(OC(C)=O)C3OC(C)=O)nc(SC)n(C)c2=O)c(=O)n1C (centres undefined)" discrete_label=inactive
molecule=COC(=O)c1ccc(-c2c(C#N)[n+](=O)c3cc(Cl)c(Cl)cc3n2[O-])cc1 discrete_label=inactive

---

Test system: KM12 colon
procedure.text: NCI tumour cell line growth inhibition, 48 h
metric: log10 TGI (log10 of the value in µM)

compound="COc1ccc(C(O)(CCC(C)C)C(CN2CCOCC2)c2ccc(Cl)cc2)cc1 (centres undefined)" meas_value=1.42
compound=CN(C)CCNC(=O)c1cccc2ccc(-c3ccc(F)cc3)nc12 meas_value=1.52
compound=O=[P@@]1(c2ccccc2)O[C@H](COCc2ccccc2)[C@@H](OCc2ccccc2)[C@H](OCc2ccccc2)[C@H]1NCc1ccccc1 meas_value=1.67
compound=O=C1CCC(=O)c2c1c(O)c1ccncc1c2O meas_value=1.59
compound=C=COC(=O)N[C@H]1CCc2cc(OC)c(OC)c(OC)c2-c2ccc(SC)c(=O)cc21 meas_value=-1.41
compound=COC(=O)NC(C(F)(F)F)(C(F)(F)F)P1(=O)OCCCO1 meas_value=1.81
compound="CC1(Br)Cc2ccccc2C1=O (centres undefined)" meas_value=1.41
compound=Cc1nc2cc(Nc3nc(Nc4ccc(F)cc4)nc(-c4cccs4)n3)ccc2n1Cc1ccccc1 meas_value=1.22
compound="O=C(O)CCSC(CC1(c2ccc(Cl)cc2)NC(=O)CCS1)c1ccccc1 (centres undefined)" meas_value=1.15
compound="CC1C=CN(N(C)C)C2=C1C(=O)c1cnccc1C2=O (centres undefined)" meas_value=0.45
compound=O=C1c2cccc3cccc(c23)C(=O)N1CCCCCN1CCN(CCCCCOc2ccc(-c3nc4ccc(N5CCOCC5)cc4[nH]3)cc2)CC1 meas_value=0.63
compound=NCCCn1c2c(c3ccc([N+](=O)[O-])cc3c1=O)C(=O)c1ccccc1-2 meas_value=0.09

---

System: SN12C renal
procedure.text: NCI tumour cell line growth inhibition, 48 h
Item-by-item account of TGI
metric: TGI

molecule=O=[N+]([O-])c1cccc2ccc(N/N=C/c3ccccc3O)nc12 meas_value="> 100 µM"
molecule=CCOC(=O)c1c2c(n(Cc3ccccc3)c1C)C(=O)C(=O)c1ccccc1-2 meas_value="0.333 µM"
molecule=O=C(NNc1ccccc1)C(=O)NNc1ccccc1 meas_value="> 100 µM"
molecule="COC1CCCCN1C(=O)c1ccccc1 (stereo unspecified)" meas_value="> 25.3 µM"
molecule=Cn1c2ccccc2c2ncc3[nH]c4ccccc4c3c21 meas_value="73.2 µM"
molecule=C[Si](C)(C)/C(Br)=C\CCN1C(=O)CCC1=O meas_value="> 100 µM"
molecule="COc1ccc(C2=C(c3ccc(OC)cc3)C(=O)N3CCCC3C2)cc1 (stereo unspecified)" meas_value="> 100 µM"
molecule=O=C1NI(C#Cc2ccccc2)c2ccccc21 meas_value="> 100 µM"
molecule=Oc1ccc2ccccc2c1N=Nc1ccc(Br)cc1 meas_value="> 100 µM"
molecule=COC(=O)c1cc2c(s1)-c1nccc3c1c(nc1ccccc13)C2=O meas_value="> 100 µM"
molecule=CN1CC[C@@H](c2c(O)cc(O)c3c(=O)cc(-c4ccc(C(F)(F)F)cc4Cl)oc23)[C@@H]1CO meas_value="44.6 µM"
